- tested.system: T1, HSL1 (HAESA-LIKE 1) ectodomain (Arabidopsis, UniProt Q9SGP2 17-618)
- T1 chain: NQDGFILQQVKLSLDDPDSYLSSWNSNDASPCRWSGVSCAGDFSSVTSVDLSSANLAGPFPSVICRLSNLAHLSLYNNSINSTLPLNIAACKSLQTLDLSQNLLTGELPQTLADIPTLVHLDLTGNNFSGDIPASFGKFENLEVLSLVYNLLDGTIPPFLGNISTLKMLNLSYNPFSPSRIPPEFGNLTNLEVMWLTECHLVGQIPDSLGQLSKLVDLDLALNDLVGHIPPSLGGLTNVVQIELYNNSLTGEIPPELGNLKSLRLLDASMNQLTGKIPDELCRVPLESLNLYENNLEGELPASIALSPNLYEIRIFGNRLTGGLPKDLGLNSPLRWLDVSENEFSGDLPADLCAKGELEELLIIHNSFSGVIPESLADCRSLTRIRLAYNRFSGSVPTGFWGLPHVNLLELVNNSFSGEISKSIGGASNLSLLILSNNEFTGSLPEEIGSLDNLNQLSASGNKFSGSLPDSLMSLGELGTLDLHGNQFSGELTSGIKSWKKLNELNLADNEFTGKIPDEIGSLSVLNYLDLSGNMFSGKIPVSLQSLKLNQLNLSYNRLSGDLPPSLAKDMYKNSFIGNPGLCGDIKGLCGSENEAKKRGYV
- experimental.protocol: ITC
pKd: −log10 of the molar value. Ends that are not written are not given here.
Threshold check on pKd: at or above 6 gives True, strictly below gives False.

Solved entries:
YVLVPPSGPSMRHN (not fully specified; also: conserved central hydroxyproline, position not given here) [IDL1 (IDA-LIKE 1) mature peptide] | True
YVPVPASGPSRKHN (also: conserved central hydroxyproline, position not given here) [IDL2 (IDA-LIKE 2) mature peptide] | True
YVPIPPSAPSKRHN (also: hydroxyproline at Pro64 (precursor numbering), position in chain not settled) [IDA (INFLORESCENCE DEFICIENT IN ABSCISSION) mature peptide] | True

Could you now look at the following binder, please?
Does pKd meet or surpass 6 for PVPASAPSRKHN [IDL4 (IDA-LIKE 4) mature peptide] ?
False
